Entry source: the supplement of paper PMC10567573

assay: protein stability index of a GFP-peptide fusion (GPS, HEK-293T) (PSI 1-6); higher = more stable; conditions: treatment: MLN4924 1 uM, 8 h; c terminus: a fixed tail appended;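 note: 24-mer peptide tiles fused after GFP, lentivirally expressed, FACS-sorted into six equal bins by GFP/DsRed ratio, decoded by Illumina sequencing, PSI is the read-weighted mean bin number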
QUANTITY KIND: protein stability index

SEQUENCE TEXT	QUANTITY KIND	REPORTED MEASUREMENT
QQERNDTNFHGVCMFCNEEFLGNR [ZNF277]	protein stability index	2.99
SLSHSPGCSSTQGNGRPGRPSQYR [LCOR]	protein stability index	4.67
SYLIEKVKRKKNVLRLCCKKLKIF [PRAME]	protein stability index	3.22
QDQPSEAATGGATLAQTISEAAIG [HDAC6]	protein stability index	5.35
AGPYLLNGSYLELSSDRVANSSSE [ADAMTSL2]	protein stability index	4.07
SNPELDVLLLGSVDGRHLLRTLSR [DNAAF3]	protein stability index	2.56
ARQAACCVARPGTPSLLRFALASL [ZSWIM9]	protein stability index	2.43
TETPLEGDFAWERVRGLGLPKLYL [CDKN1A]	protein stability index	2.57
QFTMGGPAISMASPMSIPTNTMHY [CARM1]	protein stability index	2.68
RPHEVLLCSDLVKAYQRCVSAAHK [CHCHD6]	protein stability index	2.75
HIPSQEVPGTQVGQGGKLWDPSVQ [ZNF263]	protein stability index	4.44
LAEALLHPFFAGLTPEERSFHTSR [CLK3]	protein stability index	2.21
SLSFEDELVYADDYIMDEDQSKLA [ESRRG]	protein stability index	5.41
LEEEIRRKQILLRGKLKKTEEELR [ZC2HC1C]	protein stability index	4.59
LHTFTPAGRPRAERRPRRVEAERP [FAM189A2]	protein stability index	4.45
NGNEEDNHLPPQTKRSSRNPVFQD [FAM104A]	protein stability index	5.26
NFDSIYICPSTFACAQLATGAACR [HDAC6]	protein stability index	2.16
QGPMSQRRENYGVPPRRATISSWR [RBMY1A1]	protein stability index	3.57
KRNNFYIKIRPGEFEQFESTIGFK [EPB41L3]	protein stability index	2.46
IAANLENKATNTDHLTTVLYLQLA [C8orf76]	protein stability index	2.17
QVRSAAVQLIWVVSQLYPESIVPI [INTS4]	protein stability index	2.9
YIRAPPRSKIYLRFLDYEMQNSNE [NETO1]	protein stability index	2.44
ILHMNGSQSSTYRGTYEQDGRFEK [ZNF396]	protein stability index	3.36
VCQALAQVDGGANFSVDRWERKEG [CPOX]	protein stability index	4.1
DLYNWEVAIFGPPNTYYEGGYFKA [CDC34]	protein stability index	2.51
SKSSHPLIRSLFHGFLFMIFQIGV [SOAT1]	protein stability index	2.72
TIGVEFATRSIQVDGKTIKAQIWD [RAB11A]	protein stability index	3.08
ELYGLALRFFKEKDGKAFHPTYEE [ACBD3]	protein stability index	2.19
QESKNQVHRRGEYNVYSTFQSHEP [PPP2R2B]	protein stability index	4.2
LARKNREELDKYWSQQIEESTTVV [KRT18]	protein stability index	4.12

###

test: protein stability index of a GFP-peptide fusion (GPS, HEK-293T) (PSI 1-6); higher = more stable; conditions: treatment: MLN4924 1 uM, 8 h; c terminus: a fixed tail appended
Please mark label 1 if the recorded protein stability index is equal to or greater than 3, and label 0 if it falls below.

SEQUENCE TEXT	LABEL VALUE
RDSYGGPPRREPLPSRRDVYLSPR [RBMX]	label 1
NGNSYICKCSEGFVLAEDGRRCKK [MATN2]	label 1
NWPARQRGTHAVVGVATARAPLHS [SPSB4]	label 1
PRLKEDQPWMVIEGIRQTEYTLTG [FSD1]	label 1
PSAGFRCCAAPGPHVALAVRYNRV [ANKRD9]	label 0
DRHGVYGLQRNLLVENIIDIYKQE [TRIM63]	label 1
SESGSLGNSSGSDVTSLSSQLPDT [ISL2]	label 1
EPCQLPSESPGSLSEVLAQPQGAL [DNAAF3]	label 1
AKTIDTSPPVDLFATASAAVPVST [SNAP91]	label 1
TGMPMMPQQPVMFAQPMMRPPFGA [SNAP91]	label 0
IGGAAPSLGALDLLGPATGCLLDD [SERTAD1]	label 1
TELRRSGSSRSPGSKARAEGRGPV [PLEKHN1]	label 1
TLHNAQTQEPIFTFTASFSGKVFP [TRIM15]	label 0
YGVKSPLSLIARFSPIAIDGMSGL [ELAVL3]	label 0
YDTTLALGHAAAFSDDCDLPSAQD [GLT8D2]	label 1
RRFQQTQYLALPERAELAASLGLT [DLX1]	label 1
FSEIISSISDVKFSHSGRYIMTRD [PPP2R2B]	label 0
MNCLPSNRTLWRLDLAGNNIPGDV [LRRC45]	label 0
TDILDLENQRENLEQPFLSVFKKG [PLEKHN1]	label 1
SALASDRFNLILADTNSDRLFTVN [DCAF4]	label 0
IERLRSLSPKIMQEAFLVQEVVEL [TBC1D10A]	label 0
MSGGPMGGRPGGRGAPAVQQNIPS [WAS]	label 1

###

test: protein stability index of a GFP-peptide fusion (GPS, HEK-293T) (PSI 1-6); higher = more stable; conditions: treatment: DMSO; c terminus: a fixed tail appended
QUANTITY KIND: protein stability index

SEQUENCE TEXT	REPORTED MEASUREMENT
IIPTPDEEEKILRVKLEEDPDGEE [ZNF24]	5.44
LESLEDTHIMKGEDDALSDKHGCP [TRIB1]	5.23
GLHLTDPSQRLVQNCLWTLRNLSD [CTNNB1]	2.29
EYFFDRNRPSFDAILYYYQSGGRL [KCNA1]	2.52
TPVVTESTATSITLTWDSGNPEPV [PTPRD]	4.21
RHFFTSWASCLQYDFDTQYAFVGD [WDFY1]	2.37
CYETLPRGQCLLYNWEEERATNHL [SPAG8]	2.92
IYGPGNLSTNNNTLRDHFKGISSH [SLC2A12]	2.95
NLARQWNNCAFLESSAKSKINVNE [RAP1B]	2.93

###

test: protein stability index of a GFP-peptide fusion (GPS, HEK-293T) (PSI 1-6); higher = more stable; conditions: treatment: DMSO; c terminus: a fixed tail appended

SEQUENCE TEXT	protein stability index
YQQLEDDKLSQKSSSSKLSRSPLK [EPB41L3]	4.94
AGGHPAQLGLGRGASTFKEEPQTV [JUNB]	4.51
QEPQSPQKLNPGFDLAKGNAGKVN [PLAGL1]	5
EDHLAVKHFSVEGQLEFRALLFIP [HSP90AB1]	1.57
PRAERKCPRIAPADSGRYRASPTR [ELOA2]	4.47
QQDDSDEYDDDDSAASTSFQPQPV [ZNF207]	5.4
TEEDDGFVDILESDLKDDDAVPPG [CDC25B]	5.46
AKAAALSTKTPAPCSEFMEPSSDP [SPAG8]	5.1
TFNRWGTLLAVGCNDGRIVIWDFL [RBBP5]	2.35
YAFVGDYSGQITLLKLEQNTCSVI [WDFY1]	2.94
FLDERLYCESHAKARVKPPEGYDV [PDLIM4]	2.78
YSALSCTSDASFHPAFLPQRQAIK [KCNG1]	2.78
SDLGFEVKCFNDLKAEELLLKIHE [CASP6]	2.48
VSVESQQVQQVEVEATVKPELTAA [PRPH]	5.23

###

experiment: protein stability index of a GFP-peptide fusion (GPS, HEK-293T) (PSI 1-6); higher = more stable; settings: treatment: DMSO; c terminus: a fixed tail appended
Threshold check on protein stability index: at or above 3 gives T, strictly below gives F.

SEQUENCE TEXT	LABEL VALUE
ETSYQQREERLRRENEELSARYLS [FBF1]	T
GRDELGGGRRPGTSPALLQGTAEE [CDKN1A]	T
NTLAPTCFKAKLHRKRGSQPPDMA [RSPH3]	T
QFQEALEELAKKRFKDKSSEEAVR [TPPP]	T
DPSKRALSRDTVQESYENVDSLES [ZNF263]	T
MTPQLFINYKLKSVAHLPWRMLTY [CLPTM1]	F
PLLPAPPKTPMDGADCGIQWWNAV [LYSMD4]	T
ARLTGVNDKMAEYTNSAGVPSLNA [GOSR1]	T
GSPVNQQPKKNNVMARTRLVVPNK [FAM219A]	T
TGLMVSLLCLLHFSIVSVAAHLAL [RTN2]	T
GKSPVNMVTVAMVAGQCEFAHILH [ZNF649]	F
IGGAAPSLGALDLLGPATGCLLDD [SERTAD1]	T
LTCEFNNNHESLDEELHLLIISCR [FBXO39]	F
